experiment: protein stability index of a GFP-peptide fusion (GPS, HEK-293T) (PSI 1-6); higher = more stable; settings: treatment: MLN4924 1 uM, 8 h; c terminus: a fixed tail appended;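 also: 24-mer peptide tiles fused after GFP, lentivirally expressed, FACS-sorted into six equal bins by GFP/DsRed ratio, decoded by Illumina sequencing, PSI is the read-weighted mean bin number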
The entries below are paired with their reported protein stability index.
Lab note: write the figure by itself, no unit.

Check out these entries, answers already filled in.
- chain-sequence: "KELIIFRLVAPTEGSLEWDILEVK [WDR41]"
  protein stability index: 2.21
- chain-sequence: "AVTLRCGHNFCRGCVSRCWEVQVS [TRIM35]"
  protein stability index: 2.33

Input line: Entry GLSQVLLRGGGQVLLGWTLHYFPF [POMT2] : reported protein stability index = ?
Output line: 2.97

Input line: Entry RSEFTLMAKRIGKDLSNTFAKLEK [STX5] : reported protein stability index = ?
Output line: 2.31
